The entries below are paired with their reported Fluorescence intensity, fluorescence competitive binding assay, OBP11.
Target: SfurOBP11 (Sogatella furcifera, UniProt V5T6E3)
Sequence (V5T6E3 entry or part of it): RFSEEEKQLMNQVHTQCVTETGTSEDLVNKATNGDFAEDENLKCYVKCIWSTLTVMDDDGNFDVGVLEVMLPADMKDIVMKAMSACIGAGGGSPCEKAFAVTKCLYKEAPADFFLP
Assay: biochemical
Assay type: binding
Conditions: ligand concentration 18, replicate 3
Answer with a bare number; do not write a unit.

| Compound | Recorded value |
| --- | --- |
| CC1=CC[C@@H](C(C)(C)O)CC1 | 24854 |
| Cc1ccc(C(C)C)cc1 | 23440 |

Tell us which Fluorescence intensity, fluorescence competitive binding assay, OBP11 value is on record for CCCCCCCCCCCCCCCCCCC
29208

Give Fluorescence intensity, fluorescence competitive binding assay, OBP11 for CCCCCCCCCCC
33114

Look up Fluorescence intensity, fluorescence competitive binding assay, OBP11 of CCCCCCCCCCCCCCCC and report it.
23178

Report Fluorescence intensity, fluorescence competitive binding assay, OBP11, nothing else, for this compound: CC/C=C\CCO [(Z)-3-hexenol]
15799

----------
Target: UniProtKB V5T6E3
Experiment: biochemical
Type: binding
Conditions: ligand concentration 12, replicate 1
Readout kind: Fluorescence intensity, fluorescence competitive binding assay, OBP11
Could you respond with only the numeric value?

// solved cases for Fluorescence intensity, fluorescence competitive binding assay, OBP11 follow
| Compound | Recorded value |
| --- | --- |
| C=CC(C)(O)CCC=C(C)C (stereo not shown) | 31331 |
| COC(=O)c1ccccc1 | 23537 |
| C[C@@H]1CC[C@H]2C(C)(C)[C@H]3C[C@@]12CC[C@@]3(C)O | 32777 |

Please report the measured Fluorescence intensity, fluorescence competitive binding assay, OBP11 for CCCCCCCCCCC
29262

Complete the entry with Fluorescence intensity, fluorescence competitive binding assay, OBP11 for CCCCCC(C)=O
22134

State its Fluorescence intensity, fluorescence competitive binding assay, OBP11 for this compound: CC(=O)c1ccccc1
21957

Please give the documented Fluorescence intensity, fluorescence competitive binding assay, OBP11 of OC1CCCCC1
23691

----------
Target: SfurOBP11 (Sogatella furcifera, UniProt V5T6E3)
Assay: biochemical
Type: binding
Conditions: ligand concentration 6, replicate 1
Readout kind: Fluorescence intensity, fluorescence competitive binding assay, OBP11
The answer should be written as a number, with no unit following it.

| Compound | Recorded value |
| --- | --- |
| CC(=O)/C=C/C1=C(C)CCCC1(C)C | 26910 |

Provide the reported Fluorescence intensity, fluorescence competitive binding assay, OBP11 (system: SfurOBP11 (Sogatella furcifera, UniProt V5T6E3)) for O=Cc1ccccc1
24540

Report value: Fluorescence intensity, fluorescence competitive binding assay, OBP11, system: SfurOBP11 (Sogatella furcifera, UniProt V5T6E3), compound: CCCCCCCCCCCCC=O
26493

GET Fluorescence intensity, fluorescence competitive binding assay, OBP11 where system = SfurOBP11 (Sogatella furcifera, UniProt V5T6E3) and item = C=CC(C)(O)CCC=C(C)C (stereo not drawn)
35921

GET Fluorescence intensity, fluorescence competitive binding assay, OBP11 where system = SfurOBP11 (Sogatella furcifera, UniProt V5T6E3) and item = COC(=O)c1ccccc1
25204

Quote SfurOBP11 (Sogatella furcifera, UniProt V5T6E3) Fluorescence intensity, fluorescence competitive binding assay, OBP11 for entry CCCCCC(C)=O .
24984

----------
Target: SfurOBP2 (Sogatella furcifera, UniProt V5T759)
Sequence (V5T759 entry or part of it): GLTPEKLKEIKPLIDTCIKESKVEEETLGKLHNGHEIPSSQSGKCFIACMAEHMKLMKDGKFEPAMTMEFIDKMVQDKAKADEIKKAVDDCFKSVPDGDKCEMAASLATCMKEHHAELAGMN
Assay: biochemical
Assay type: binding
Conditions: ligand concentration 4 (unit not given), replicate column 3 of 3
Readout kind: Fluorescence competitive binding assay, OBP2 (raw fluorescence reading)

Would you please look over these solved cases?
| Compound | Recorded value |
| --- | --- |
| CCCCCC=O [caproaldehyde] | 20133 |
| C=CC(C)(O)CCC=C(C)CCC=C(C)C (mixture of isomers) [nerolidol] | 16107 |
| CCCCCC(C)=O [2-heptanone] | 20388 |
| C=C/C(C)=C/C/C=C(\C)CCC=C(C)C [α-farnesene] | 16490 |

Using known records, supply Fluorescence competitive binding assay, OBP2 (raw fluorescence reading) for Cc1cc(C(C)(C)C)c(O)c(C(C)(C)C)c1 [BHT(2,6-di-tert-butyl-4-methylphenol)]
16317

----------
Target: SfurOBP11 (Sogatella furcifera, UniProt V5T6E3)
Experiment: biochemical
Format: binding
Settings: ligand concentration 14, replicate 1
Attribute: Fluorescence intensity, fluorescence competitive binding assay, OBP11
The answer should be written as a number, with no unit following it.

| Molecule | Target or test system | Recorded value |
| --- | --- | --- |
| CC(C)COC(=O)CCCCC(=O)OCC(C)C [DA(diisobutyl adipate)] | SfurOBP11 (Sogatella furcifera, UniProt V5T6E3) | 20110 |
| C=C/C(C)=C/C/C=C(\C)CCC=C(C)C [α-farnesene] | SfurOBP11 (Sogatella furcifera, UniProt V5T6E3) | 31889 |
| CC1=CC[C@@H](C(C)(C)O)CC1 [α-terpineol] | SfurOBP11 (Sogatella furcifera, UniProt V5T6E3) | 22371 |
| CCCCCC(C)=O [2-heptanone] | SfurOBP11 (Sogatella furcifera, UniProt V5T6E3) | 21048 |
| CC(=O)c1ccccc1 [acetophenone] | SfurOBP11 (Sogatella furcifera, UniProt V5T6E3) | 23062 |

State, for SfurOBP11 (Sogatella furcifera, UniProt V5T6E3), measured Fluorescence intensity, fluorescence competitive binding assay, OBP11 of the molecule listed here: CCCCCCCCCCCCCCCCCCC [n-nonadecane]
33030

Enter recorded Fluorescence intensity, fluorescence competitive binding assay, OBP11 with SfurOBP11 (Sogatella furcifera, UniProt V5T6E3) for CCCCCCCCCCCCCCCCCC [n-octadecane] here.
27521

System SfurOBP11 (Sogatella furcifera, UniProt V5T6E3). Read-out Fluorescence intensity, fluorescence competitive binding assay, OBP11. Item CCCCCCCCCCCCCCCC [n-hexadecane] . Report value.
21701

----------
Molecular target: SfurOBP11 (Sogatella furcifera, UniProt V5T6E3)
Experiment: biochemical
Assay type: binding
Conditions: ligand concentration 2, replicate 1
Readout kind: Fluorescence intensity, fluorescence competitive binding assay, OBP11

Solved cases below.
| Compound | Target or test system | Recorded value |
| --- | --- | --- |
| C[C@@H]1CC[C@H]2C(C)(C)[C@H]3C[C@@]12CC[C@@]3(C)O [cedrol] | SfurOBP11 (Sogatella furcifera, UniProt V5T6E3) | 32664 |
| CCCCCCCCCCCCCC [n-tetradecane] | SfurOBP11 (Sogatella furcifera, UniProt V5T6E3) | 29943 |
| CCCCCCC=CCO [2-nonen-1-ol] | SfurOBP11 (Sogatella furcifera, UniProt V5T6E3) | 37643 |
| CCCCCC=O [caproaldehyde] | SfurOBP11 (Sogatella furcifera, UniProt V5T6E3) | 29622 |

State its Fluorescence intensity, fluorescence competitive binding assay, OBP11: CC(=O)/C=C/C1=C(C)CCCC1(C)C [β-Ionone]
28050

Read the entry CCCCCCCCCCCCCCCC(=O)OC [MH(methyl hexadecanoate)] and write its reported Fluorescence intensity, fluorescence competitive binding assay, OBP11.
29421

Answer with reported Fluorescence intensity, fluorescence competitive binding assay, OBP11 of CCCCCC(C)=O [2-heptanone]
24306

Determine from records and report Fluorescence intensity, fluorescence competitive binding assay, OBP11 for CC(C)COC(=O)CCCCC(=O)OCC(C)C [DA(diisobutyl adipate)]
28052

Hello, please tell me recorded Fluorescence intensity, fluorescence competitive binding assay, OBP11 for this one: CCCCCCCCCCCCC=O [tridecanal]
24967

For the compound CC/C=C\CCO [(Z)-3-hexenol] , report Fluorescence intensity, fluorescence competitive binding assay, OBP11.
23102

Give the reported value of Fluorescence intensity, fluorescence competitive binding assay, OBP11 for this record: CCCCCCCCCCCCCCCCCCC [n-nonadecane]
39005

Give a short answer stating reported Fluorescence intensity, fluorescence competitive binding assay, OBP11 for Cc1ccc(C(C)C)cc1 [4-isopropyltoluene] .
35978

Identify measured Fluorescence intensity, fluorescence competitive binding assay, OBP11 corresponding to CCCCCCCCCCCCCCCC [n-hexadecane]
21809

----------
Readings of Fluorescence intensity, fluorescence competitive binding assay, OBP11 for the listed compounds
Biological target: SfurOBP11 (Sogatella furcifera)
Experiment: biochemical
Type: binding
Settings: ligand concentration 8, replicate 1
Answer with the value's number alone.

| Compound | Recorded value |
| --- | --- |
| CCCCCCC=CCO [2-nonen-1-ol] | 32705 |
| CCCCCCCCCCCCCCCC(=O)OC [MH(methyl hexadecanoate)] | 38631 |
| Cc1cc(C(C)(C)C)c(O)c(C(C)(C)C)c1 [BHT(2,6-di-tert-butyl-4-methylphenol)] | 19852 |
| CCCCCCCCCCCCO [lauryl alcohol] | 24078 |
| CCCCCCCCCCCCCCCCCC [n-octadecane] | 27729 |

Please supply the value of reported Fluorescence intensity, fluorescence competitive binding assay, OBP11 for the item CCCCCCCCCCCCC=O [tridecanal]
24847

Check the records and state Fluorescence intensity, fluorescence competitive binding assay, OBP11 for CCCCCC=O [caproaldehyde]
26196

Consider the compound C/C(=C\CO)CCC[C@H](C)CCC[C@H](C)CCCC(C)C [plant alcohol] . State its measured Fluorescence intensity, fluorescence competitive binding assay, OBP11.
17184

Check the records and state Fluorescence intensity, fluorescence competitive binding assay, OBP11 for CC(C)COC(=O)CCCCC(=O)OCC(C)C [DA(diisobutyl adipate)]
23239

Retrieve Fluorescence intensity, fluorescence competitive binding assay, OBP11 measured for C=CC(C)(O)CCC=C(C)C (stereo not shown) [linalool] and print it.
31879

Give the reported value of Fluorescence intensity, fluorescence competitive binding assay, OBP11 for this record: COC(=O)c1ccccc1 [benzoic acid methylester]
24731

Recall and state the measured Fluorescence intensity, fluorescence competitive binding assay, OBP11 for CC/C=C\CCO [(Z)-3-hexenol] .
18781

Provide only the value of recorded Fluorescence intensity, fluorescence competitive binding assay, OBP11 for CC1=CC[C@@H](C(C)(C)O)CC1 [α-terpineol]
25898
